tested system: gEgI WT: HSV2 gEgI heterodimer comprising gE and gI wildtype ectodomains (HSV2, UniProt P89475 21-416; P06764 21-256)
assay notes: SPR binning; gEgI captured by mAb 19
RU under -6 RU gets YES, anything at or over -6 RU gets NO.

Query: Does the reported RU of mAb clone 19 (antibody, V domains shown) VH: QVQLQQSGAELVRPGVSVKISCKGSGYTFTDYAMHWVKQSHAKSLEWIGVISTYYGDARYNQKFKGKATMTVDKSSSTAYMELARLTSEDSAIYYCARRGITVVADYAMDYWGQGTSVTVSS VL: QIVLTQSPAIMSASPGEKVTMSCSASSSVTYMHWYQQKSGTSPKRWIYDTSKLASGVPARFSGSGSGTSYSLTISSMEAEDAATYYCQQWSSNPPTFGGGTKLEIK stay below -6 RU?
Response: NO

Query: Thanks! And mAb clone 34 (antibody, V domains shown) VH: EVKLVESGGGLVQPGGSLKLSCATSGFTFSDYYMYWVRQTPEKRLEWVAYISNGGDSTYYPDTVKGRFTISRDNAKNTLYLQMSRLKSEDTAMYYCARSYYGNPFPYWGQGTLVTVSA VL: ENVLTQSPAIMSASPGEKVTMTCRASSSVSSSYLHWYQQKSGASPKLWIYSTSNLASGVPARFSGSGSGTSYSLTISSVEAEDAATYYCQQYSGYPLTFGAGTKLELK ?
Response: YES

Query: Thanks! And mAb clone 15 (antibody, V domains shown) VH: QVQLKESGPGLVAPSQSLSITCTVSGFSLTSYGVSWVRQPPGKGLEWLGVIWGDGSTNYHSALISRLSISKDNSKSQVFLKLNSLQTDDTATYYCAKPDLYYDSPYAMDYWGQGTSVTVSS VL: DIQMTQSPASLSASVGETVTITCRASGNIHNYLAWYQQKQGKSPQLLVYNAKTLADGVPSRFSGSGSGTQYSLKINSLQPEDFGSYYCQHFWSTPWTFGGGTKLEIK ?
Response: NO

Query: Thanks! And mAb clone 39 (antibody, V domains shown) VH: EVKLVESGGGLVQPGGSLKLSCAASGFTFSSYTMSWVRQTPEKRLEWVAYISNGGGSTYYPDTVKGRFTISRDNAKNTLYLQMSSLKSEDTAMYYCARGVSYYGDLYYFDYWGQGTTLTVSS VL: DVVVTQTPLSLPVSFGDQVSISCRSSQSLANSYGNTYLSWYLHKPGQSPQLLIYGISNRFSGVPDRFSGSGSGTDFTLKISTIKPEDLGMYYCLQGTHQPWTFGGGTKLEIK ?
Response: YES

Query: Thanks! And mAb clone 17 (antibody, V domains shown) VH: QVQLKESGPGLVAPSQSLSITCTVSGFSLTSYGVHWVRQPPGKGLEWLGVIWAGGSSNYNSALMSRLSISKDNSKSQVFLKMNSLQTDDTAMYYCARDGYGYVYYAMDYWGQGTSVTVSS VL: DIVMTQAAPSVPVTPGESVSISCRSSKSLLHSNGNTYLYWFLQRPGQSPQLLIYRMSNLASGVPDRFSGSGSGTAFTLRISRVEAEDVGVYYCMQHLEYPFTFGAGTKLELK ?
Response: YES

Query: Thanks! And mAb clone 24 (antibody, V domains shown) VH: EVQLQQSGPELVKPGASVKMSCKASGYTFTDYYMKWVKQSHGKSLEWIGDINPNNGDTFYNQKFKGKATLTVDKSSSTAYMQLNSLTSEDSAVYYCARRGFYYYGSRGGIMDYWGQGTSVTVSS VL: NIMMTQSPSSLAVSAGEKVTMSCKSSQSVLYSSNQKNYLAWYQQKPGQSPKLLIYWASTRESGVPDRFTGSGSGTDFTLTISSVQAEDLAVYYCHQYLSSYTFGGGTKLEIK ?
Response: NO
